The measured values listed here are drawn from paper PMC8162404.

# measured target: S100A4 (Homo sapiens)
# Construct: made in house; host or cells: Escherichia coli BL21(DE3)
# Sequence (P26447 whole entry): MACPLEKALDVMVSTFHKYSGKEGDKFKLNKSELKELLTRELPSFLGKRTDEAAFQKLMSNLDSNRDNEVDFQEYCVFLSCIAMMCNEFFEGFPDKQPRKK
# assay comment: Pull-down assay with immobilized protein and LSM libraries
# Assay type: binding
# details: H14 library; 1:1 binding assumed; read-out: Surface mapping KD (apparent)
# maps each entry to its pKd
Reminder that pKd means the negative base-10 logarithm of the concentration expressed in mol/L.

Some solved cases for reference:
molecule	pKd
C[C@@H](O)[C@@H](CC(=O)N[C@H]1CCCC[C@@H]1C(=O)N[C@H]1CCCC[C@@H]1C(=O)N[C@H](CC(=O)N[C@H]1CCCC[C@@H]1C(N)=O)Cc1c[nH]c2ccccc12)NC(=O)[C@H]1CCCC[C@@H]1N	3.72
CC(C)[C@@H](CC(=O)N[C@H]1CCCC[C@@H]1C(N)=O)NC(=O)[C@H]1CCCC[C@@H]1NC(=O)[C@H]1CCCC[C@@H]1NC(=O)C[C@H](Cc1ccccc1)NC(=O)[C@H]1CCCC[C@@H]1N	4.92

Consider now this further compound.
Ask | Quick one: pKd of CSCC[C@@H](CC(=O)N[C@H]1CCCC[C@@H]1C(=O)N[C@H]1CCCC[C@@H]1C(=O)N[C@H](CC(=O)N[C@H]1CCCC[C@@H]1C(N)=O)[C@@H](C)O)NC(=O)[C@H]1CCCC[C@@H]1N ?
Reply | 3.83

----------
# measured target: RecQ-WH (Escherichia coli, UniProt P15043)
# Construct: coding for residues 408– 523 of E. coli RecQ; made in house; host or cells: E. coli BL21(DE3)
# Sequence (P15043 408-523): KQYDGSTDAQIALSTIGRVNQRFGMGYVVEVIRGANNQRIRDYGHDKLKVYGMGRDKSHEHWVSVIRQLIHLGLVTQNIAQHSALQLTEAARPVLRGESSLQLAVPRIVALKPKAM
# assay comment: Pull-down assay with immobilized protein and LSM libraries
# Set-up: species or system E. coli
# details: H14 library; 1:1 binding assumed; read-out: Surface mapping KD (apparent)
# Experimental: Pull-down assays with immobilized test proteins and foldameric LSM libraries were carried out. Proteins were equilibrated with LSM probes, and equilibrium bound fractions (FB) were determined from the unbound fractions measured by HPLC-MS methods. Hits were corrected with background binding of the resin. […] MS data analysis. […] Using these processing setups, all raw data files were reprocessed together and analyzed. […]
Listing of recorded Kd by entry.
Use µM as the unit, but write only the number.

Reference set, count: 3
molecule	result number
CC[C@H](C)[C@@H](CC(=O)N[C@H]1CCCC[C@@H]1C(=O)N[C@H]1CCCC[C@@H]1C(=O)N[C@H](CC(=O)N[C@H]1CCCC[C@@H]1C(N)=O)C(C)C)NC(=O)[C@H]1CCCC[C@@H]1N	366
N=C(N)NCCC[C@@H](CC(=O)N[C@H]1CCCC[C@@H]1C(N)=O)NC(=O)[C@H]1CCCC[C@@H]1NC(=O)[C@H]1CCCC[C@@H]1NC(=O)C[C@H](Cc1c[nH]c2ccccc12)NC(=O)[C@H]1CCCC[C@@H]1N	272
CC(C)C[C@@H](CC(=O)N[C@H]1CCCC[C@@H]1C(N)=O)NC(=O)[C@H]1CCCC[C@@H]1NC(=O)[C@H]1CCCC[C@@H]1NC(=O)C[C@H](CCC(=O)O)NC(=O)[C@H]1CCCC[C@@H]1N	444

// below: Kd requested for another compound
Ask | Item under review: N=C(N)NCCC[C@@H](CC(=O)N[C@H]1CCCC[C@@H]1C(=O)N[C@H]1CCCC[C@@H]1C(=O)N[C@H](CC(=O)N[C@H]1CCCC[C@@H]1C(N)=O)Cc1ccccc1)NC(=O)[C@H]1CCCC[C@@H]1N . Reported Kd?
Reply | 231

----------
Items are presented alongside their recorded pKd.
# measured target: CaM (Bos taurus, UniProt P62157)
# Construct: made in house; host or cells: E. coli BL21 (DE3)
# assay comment: Competition pull-down with native ligand TRPV1-Ct15
# Type: binding, bovine
# details: H14 library; competitor peptide 200 µM; read-out: Surface mapping KD (apparent), competition
To interpret pKd, take it as minus log10 of a concentration measured in moles per litre.

molecule	pKd
CC[C@H](C)[C@@H](CC(=O)N[C@H]1CCCC[C@@H]1C(=O)N[C@H]1CCCC[C@@H]1C(=O)N[C@H](CC(=O)N[C@H]1CCCC[C@@H]1C(N)=O)CC(C)C)NC(=O)[C@H]1CCCC[C@@H]1N	3.56
CC(C)[C@@H](CC(=O)N[C@H]1CCCC[C@@H]1C(N)=O)NC(=O)[C@H]1CCCC[C@@H]1NC(=O)[C@H]1CCCC[C@@H]1NC(=O)C[C@H](Cc1ccccc1)NC(=O)[C@H]1CCCC[C@@H]1N	3.85

Shifting focus to the molecule that follows.
Ask | GET /values?readout=pKd&system=CaM (Bos taurus, UniProt P62157)&item= CC(C)C[C@@H](CC(=O)N[C@H]1CCCC[C@@H]1C(N)=O)NC(=O)[C@H]1CCCC[C@@H]1NC(=O)[C@H]1CCCC[C@@H]1NC(=O)C[C@H](CC(C)C)NC(=O)[C@H]1CCCC[C@@H]1N
Reply | 3.56

----------
# measured target: S100B (Homo sapiens, UniProt P04271)
# Construct: made in house; host or cells: Escherichia coli BL21(DE3)
# Sequence (P04271 1-92): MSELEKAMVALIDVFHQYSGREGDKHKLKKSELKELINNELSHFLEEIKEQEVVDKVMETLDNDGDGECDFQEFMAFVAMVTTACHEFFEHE
# assay comment: Pull-down assay with immobilized protein and LSM libraries
# Assay type: binding
# details: H14 library; 1:1 binding assumed; read-out: Surface mapping KD (apparent)
metric name: pKd
pKd is a log-scale quantity: -log10 of the concentration expressed in molar.

Take a look at these entries with their results.
molecule	measured target	result number
NC(=O)C[C@@H](CC(=O)N[C@H]1CCCC[C@@H]1C(=O)N[C@H]1CCCC[C@@H]1C(=O)N[C@H](CC(=O)N[C@H]1CCCC[C@@H]1C(N)=O)Cc1ccccc1)NC(=O)[C@H]1CCCC[C@@H]1N	S100B (Homo sapiens, UniProt P04271)	3.91
CC(C)C[C@@H](CC(=O)N[C@H]1CCCC[C@@H]1C(=O)N[C@H]1CCCC[C@@H]1C(=O)N[C@@H](CCCNC(=N)N)CC(=O)N[C@H]1CCCC[C@@H]1C(N)=O)NC(=O)[C@H]1CCCC[C@@H]1N	S100B (Homo sapiens, UniProt P04271)	4.09

--- query ---
Ask | Endpoint output: pKd of NC(=O)[C@H]1CCCC[C@@H]1NC(=O)C[C@H](Cc1ccccc1)NC(=O)[C@H]1CCCC[C@@H]1NC(=O)[C@H]1CCCC[C@@H]1NC(=O)C[C@H](CO)NC(=O)[C@H]1CCCC[C@@H]1N . Value?
Reply | 3.98

----------
# measured target: Gal-1 (Homo sapiens)
# Construct: made in house; host or cells: E. coli BL21(DE3)
# Sequence (P09382 whole entry): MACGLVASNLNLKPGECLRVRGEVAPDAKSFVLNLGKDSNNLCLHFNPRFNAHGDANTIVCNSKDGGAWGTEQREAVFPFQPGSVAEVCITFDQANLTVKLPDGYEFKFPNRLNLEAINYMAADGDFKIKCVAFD
# assay comment: Pull-down assay with immobilized protein and LSM libraries
# Format: binding
# details: H12 library; 1:1 binding assumed; read-out: Surface mapping KD (apparent)
# note: boundary value 200 µM maps to -1; Kd below it maps to 1

Observe how each entry below is paired with its result.
molecule	measured target	group label
CSCC[C@@H](CC(=O)N[C@H]1CCC[C@@H]1C(=O)N[C@H]1CCC[C@@H]1C(=O)N[C@H](CC(=O)N[C@H]1CCC[C@@H]1C(=O)N[C@H]1CCC[C@@H]1C(N)=O)[C@@H](C)O)NC(=O)[C@H]1CCC[C@@H]1NC(=O)[C@H]1CCC[C@@H]1N [H12 MT]	Gal-1 (Homo sapiens)	1
N=C(N)NCCC[C@@H](CC(=O)N[C@H]1CCC[C@@H]1C(=O)N[C@H]1CCC[C@@H]1C(N)=O)NC(=O)[C@H]1CCC[C@@H]1NC(=O)[C@H]1CCC[C@@H]1NC(=O)C[C@H](CCCNC(=N)N)NC(=O)[C@H]1CCC[C@@H]1NC(=O)[C@H]1CCC[C@@H]1N [H12 RR]	Gal-1 (Homo sapiens)	1

Ask | Threshold test, Kd < 200 µM: NC(=O)[C@H]1CCC[C@@H]1NC(=O)[C@H]1CCC[C@@H]1NC(=O)C[C@H](Cc1ccc(O)cc1)NC(=O)[C@H]1CCC[C@@H]1NC(=O)[C@H]1CCC[C@@H]1NC(=O)C[C@H](Cc1ccc(O)cc1)NC(=O)[C@H]1CCC[C@@H]1NC(=O)[C@H]1CCC[C@@H]1N [H12 YY]
Reply | -1

Ask | Strictly below 200 µM in Kd? CC[C@H](C)[C@@H](CC(=O)N[C@H]1CCC[C@@H]1C(=O)N[C@H]1CCC[C@@H]1C(N)=O)NC(=O)[C@H]1CCC[C@@H]1NC(=O)[C@H]1CCC[C@@H]1NC(=O)C[C@H](CCSC)NC(=O)[C@H]1CCC[C@@H]1NC(=O)[C@H]1CCC[C@@H]1N [H12 MI]
Reply | -1

Ask | Please indicate whether the reported Kd of CC[C@H](C)[C@@H](CC(=O)N[C@H]1CCC[C@@H]1C(=O)N[C@H]1CCC[C@@H]1C(=O)N[C@H](CC(=O)N[C@H]1CCC[C@@H]1C(=O)N[C@H]1CCC[C@@H]1C(N)=O)Cc1ccccc1)NC(=O)[C@H]1CCC[C@@H]1NC(=O)[C@H]1CCC[C@@H]1N [H12 IF] is strictly below 200 µM.
Reply | -1

Ask | In plain terms, does CSCC[C@@H](CC(=O)N[C@H]1CCC[C@@H]1C(=O)N[C@H]1CCC[C@@H]1C(=O)N[C@@H](CO)CC(=O)N[C@H]1CCC[C@@H]1C(=O)N[C@H]1CCC[C@@H]1C(N)=O)NC(=O)[C@H]1CCC[C@@H]1NC(=O)[C@H]1CCC[C@@H]1N [H12 MS] come in under 200 µM for Kd?
Reply | -1

Ask | Hello, I'm reviewing records and need to know if Kd of CC[C@H](C)[C@@H](CC(=O)N[C@H]1CCC[C@@H]1C(=O)N[C@H]1CCC[C@@H]1C(N)=O)NC(=O)[C@H]1CCC[C@@H]1NC(=O)[C@H]1CCC[C@@H]1NC(=O)C[C@H](CCCCN)NC(=O)[C@H]1CCC[C@@H]1NC(=O)[C@H]1CCC[C@@H]1N [H12 KI] is below 200 µM. Could you check?
Reply | -1

Ask | Given NC(=O)CC[C@@H](CC(=O)N[C@H]1CCC[C@@H]1C(=O)N[C@H]1CCC[C@@H]1C(N)=O)NC(=O)[C@H]1CCC[C@@H]1NC(=O)[C@H]1CCC[C@@H]1NC(=O)C[C@H](Cc1ccccc1)NC(=O)[C@H]1CCC[C@@H]1NC(=O)[C@H]1CCC[C@@H]1N [H12 FQ] , is recorded Kd strictly lower than 200 µM?
Reply | -1

Ask | Does this molecule meet the criterion Kd < 200 µM? CC[C@H](C)[C@@H](CC(=O)N[C@H]1CCC[C@@H]1C(=O)N[C@H]1CCC[C@@H]1C(=O)N[C@@H](CC(N)=O)CC(=O)N[C@H]1CCC[C@@H]1C(=O)N[C@H]1CCC[C@@H]1C(N)=O)NC(=O)[C@H]1CCC[C@@H]1NC(=O)[C@H]1CCC[C@@H]1N [H12 IN]
Reply | -1
